Listing: IC50 of selected compounds
# TARGET OF ASSAY: human TLR8 (Homo sapiens)
# Sequence (Q9NR97 27-1041): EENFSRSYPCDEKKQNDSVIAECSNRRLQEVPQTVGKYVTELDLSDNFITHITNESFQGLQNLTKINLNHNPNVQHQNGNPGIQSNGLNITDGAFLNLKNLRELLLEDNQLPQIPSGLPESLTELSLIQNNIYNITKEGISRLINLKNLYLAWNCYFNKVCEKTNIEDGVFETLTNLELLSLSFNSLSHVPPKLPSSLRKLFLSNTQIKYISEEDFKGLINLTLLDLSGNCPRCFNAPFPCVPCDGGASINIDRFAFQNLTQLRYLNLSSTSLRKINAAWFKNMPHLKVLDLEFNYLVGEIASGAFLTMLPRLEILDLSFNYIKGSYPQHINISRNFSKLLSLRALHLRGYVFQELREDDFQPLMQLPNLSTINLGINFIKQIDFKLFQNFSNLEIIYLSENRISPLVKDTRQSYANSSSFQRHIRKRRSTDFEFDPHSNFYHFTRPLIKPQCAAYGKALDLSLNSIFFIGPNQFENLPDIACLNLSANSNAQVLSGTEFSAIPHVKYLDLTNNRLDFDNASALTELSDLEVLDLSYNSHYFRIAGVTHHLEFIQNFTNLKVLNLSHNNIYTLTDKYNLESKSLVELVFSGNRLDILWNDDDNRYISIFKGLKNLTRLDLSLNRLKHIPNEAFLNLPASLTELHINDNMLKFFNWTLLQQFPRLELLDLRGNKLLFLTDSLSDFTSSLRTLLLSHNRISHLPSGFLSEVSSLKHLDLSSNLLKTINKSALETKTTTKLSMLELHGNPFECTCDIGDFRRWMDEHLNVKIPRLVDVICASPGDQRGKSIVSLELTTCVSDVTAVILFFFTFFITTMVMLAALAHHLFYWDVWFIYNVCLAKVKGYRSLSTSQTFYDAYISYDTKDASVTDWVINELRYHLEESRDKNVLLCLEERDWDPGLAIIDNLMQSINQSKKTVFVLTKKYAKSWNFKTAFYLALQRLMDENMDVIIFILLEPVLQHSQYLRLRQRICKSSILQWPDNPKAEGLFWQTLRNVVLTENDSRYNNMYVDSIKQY
# RUN DESCRIPTION: TLR8 inhibition reporter assay (HEK-Blue cells, SEAP reporter, R848 stimulation)
# ASSAY CONDITIONS: HEK-Blue cells overexpressing human TLR8, R848 15.9 μM
API: value field is a number in nM; no unit string.

Check out these entries, answers already filled in.
- COc1ccc(-c2[nH]c3ccc(C4CCN(C(=O)CN5CCC[C@H](C(=O)N6CCC(N(C)C)CC6)C5)CC4)cc3c2C(C)C)cc1OC [Example 289]: 14
- COc1ccc(-c2[nH]c3ccc(C4CCN(CC(=O)NCCCO)CC4)cc3c2C(C)C)cc1OC [Example 277]: 37
- COc1ccc(-c2[nH]c3ccc(C4CCN(CC5CCCCN5C)CC4)cc3c2C)cc1OC (stereo not shown) [Example 49]: 260

Moving on to another compound below.
Documented IC50 of COc1ccc(-c2[nH]c3cc(C)c(C4CCN(C5CCN(C(C)C)CC5)CC4)cc3c2C(C)C)cc1OC [Example 206, di trifluoroacetic acid] : 14500
